Assignment: determine reported pIC50 for the given molecules.
Target: recombinant PfCDPK1 WT (Plasmodium falciparum)
Construct: made in house; host or cells: Escherichia coli BLR(DE3)pLysS, pGEX4T1
Sequence (P62344 whole entry): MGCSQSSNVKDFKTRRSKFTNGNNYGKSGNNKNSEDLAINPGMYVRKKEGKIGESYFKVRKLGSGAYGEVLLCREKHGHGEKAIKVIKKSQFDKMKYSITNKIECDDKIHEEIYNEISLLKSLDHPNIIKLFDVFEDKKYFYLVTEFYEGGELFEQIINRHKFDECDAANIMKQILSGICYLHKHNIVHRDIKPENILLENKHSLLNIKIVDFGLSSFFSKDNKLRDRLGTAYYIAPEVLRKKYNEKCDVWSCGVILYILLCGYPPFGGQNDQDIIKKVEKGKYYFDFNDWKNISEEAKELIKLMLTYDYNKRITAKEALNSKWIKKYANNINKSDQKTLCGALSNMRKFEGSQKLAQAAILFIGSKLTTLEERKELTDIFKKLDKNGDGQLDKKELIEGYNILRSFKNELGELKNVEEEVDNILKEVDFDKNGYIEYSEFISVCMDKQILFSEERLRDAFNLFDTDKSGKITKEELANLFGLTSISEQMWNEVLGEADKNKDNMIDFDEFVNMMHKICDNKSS
Assay: BKI library screening, in vitro kinase assay (KinaseGlo)
Assay type: biochemical
Settings: 10 µM ATP, 90 min at 30°C; two independent experiments in triplicate
One number for each entry, as −log10 of the molar value.

INSERT INTO results (smiles_structure, tested_on, measured_quantity, measurement) VALUES
  ('CCOc1ccc2cc(-c3nn(CC4CCN(C)CC4)c4ncnc(N)c34)ccc2n1', 'recombinant PfCDPK1 WT (Plasmodium falciparum)', 'pIC50', 6.36);

Here is the next item to consider.
Endpoint output: pIC50 of CCOc1ccc2cc(-c3nn(CC4CCN(C)CC4)c4ncnc(N)c34)ccc2c1 . Value?
6.79

# credit: paper PMC5142624
